Source listed as PubChem BioAssay AID684.

Reported inhibition is given for each of the following compounds.
test target: Coagulation factor XII (Homo sapiens) (UniProt P00748)
Sequence (P00748 20-372 limits assumed): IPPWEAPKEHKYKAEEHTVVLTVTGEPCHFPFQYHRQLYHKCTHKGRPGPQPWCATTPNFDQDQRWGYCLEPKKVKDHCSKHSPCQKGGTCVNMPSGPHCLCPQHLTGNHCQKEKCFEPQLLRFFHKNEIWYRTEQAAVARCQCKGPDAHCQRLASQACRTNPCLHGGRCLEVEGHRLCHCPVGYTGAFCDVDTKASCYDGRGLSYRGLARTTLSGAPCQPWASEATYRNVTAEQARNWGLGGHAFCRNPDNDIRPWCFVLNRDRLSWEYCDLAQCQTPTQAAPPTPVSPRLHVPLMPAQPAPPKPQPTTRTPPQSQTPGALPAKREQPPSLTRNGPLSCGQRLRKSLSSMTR
Sequence (P00748 373-615 limits assumed): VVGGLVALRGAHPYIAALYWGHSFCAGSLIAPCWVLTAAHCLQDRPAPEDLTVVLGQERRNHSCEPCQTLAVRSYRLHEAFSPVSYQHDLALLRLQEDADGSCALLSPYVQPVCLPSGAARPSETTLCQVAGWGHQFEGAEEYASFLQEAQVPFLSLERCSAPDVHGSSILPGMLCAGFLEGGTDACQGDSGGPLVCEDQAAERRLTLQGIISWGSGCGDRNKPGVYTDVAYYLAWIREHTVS
measurement description: blockers of FXIIa protease activity – biochemical, pooled compound mixtures, fluorogenic substrate, primary screen (AID 684);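 further: 0% = enzyme without compound and 100% = no enzyme blank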
conditions used: purified FXIIa, at 5 µM, active compounds read high
The whole screen tested about 62,000 compounds, of which about 95 (0.2%) were called active. The list comes from a sample in which actives are over-represented; it also holds close analogues and randomly drawn compounds. Where a SMILES comes first, the peptide text is derived from it. [ ]: non-standard residue; d: D form. ξ: configuration not given here. ξV = CC(C)C(N)C(=O)O

| compound | inhibition (%) |
| --- | --- |
| Cc1ccc(Cn2ccc(NC(=O)C3C4CCC(C4)C3C(=O)O)n2)cc1 (stereo unspecified) | -2.65 |
| COc1ccc2c(c1)C(C)=CC(C)(C)N2C(=O)CNCc1ccc2c(c1)OCO2 | 17 |
| CCO/C([O-])=N/c1c[n+](N2CCOCC2)no1 | 3.21 |
| CCOc1ccc(NC(=O)N(CCC(C)C)C(C)c2ccco2)cc1 (stereo unspecified) | 29.7 |
| CCCn1c(SCC(=O)N2CCc3ccccc32)nnc1-c1ccncc1 | -0.835 |
| CCN(CC)c1ccc2cc(C(=O)O)c(=O)oc2c1 | -2.87 |
| CC(C)Oc1ccc(C2NC(=O)NC2=O)cc1 (stereo unspecified) | -16.2 |
| c1nnc2c3c4c(sc3ncn12)CCC4 | -20.4 |
| O=C(CN1CCN(S(=O)(=O)/C=C/c2ccccc2)CC1)NC(=O)NCc1ccco1 | -1.11 |
| Cc1ccc2c(c1)C(O)(CC(=O)c1cccnc1)C(=O)N2 (stereo unspecified) | 10.7 |
| CC(=O)NC(C(=O)NCC(N)=O)C(C)C (stereo unspecified) (Ac-[ξV]-Gly-NH2) | 1.26 |

====

test target: Coagulation factor XII (Homo sapiens)
measurement description: blockers of FXIIa protease activity – biochemical, pooled compound mixtures, fluorogenic substrate, primary screen (AID 684);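 further: 0% = enzyme without compound and 100% = no enzyme blank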
conditions used: purified FXIIa, at 5 µM, active compounds read high
Hit rate of the full screen: of about 62,000 compounds, about 95 (0.2%) were called active. Only a selection was taken, and actives are over-represented in it overall.
reported endpoint: inhibition (%)

| compound | reading unit | reported result |
| --- | --- | --- |
| O=C1CN(C(=O)COC(=O)C2CC(=O)N(Cc3ccco3)C2)c2ccccc2N1 (stereo not given) | % | -15.4 |
| CCN1CCN(c2c(Cl)cccc2NC(=O)c2ccc(Br)o2)CC1 | % | 10.2 |
| Cc1ccc(SCc2cc(=O)[nH]c(N3CCCCC3)n2)cc1 | % | 3.87 |
| O=C1CC(N2CCN(C(c3ccccc3)c3ccccc3)CC2)C(=O)N1 (stereo not given) | % | 1.87 |
| O=C(NCc1cccnc1)c1cn(-c2ccccc2)nc1-c1cccs1 | % | 5.99 |
| C=CCn1c(COc2ccccc2F)nnc1SCC(=O)N1CC(=O)Nc2ccccc21 | % | 1.16 |
| Cc1cc2ccccc2n2c(SCC(=O)N3CCN(C(=O)c4ccco4)CC3)nnc12 | % | -6.12 |
| O=C1C(=O)N(CCN2CCOCC2)C(c2ccccn2)/C1=C(/O)c1ccc(Cl)cc1 (stereo not given) | % | 5.72 |
| CC/C(=N\O)C(C)(C)/[N+]([O-])=C/c1ccc(Br)cc1 | % | 8.49 |
| COC(=O)c1cccc(NC(=O)CSc2nc(C)cc(=O)[nH]2)c1 | % | 9.59 |
